assay: Stability of compound in rat microsomes assessed as half-life; type: ADME, Microsome
For each of the molecules below, state its half-life.

Input CC1=C(C(=O)NCc2ccc(C(=O)O)cc2)C(c2ccccc2Cl)N=C(Nc2nc3ccccc3o2)N1 (centres undefined) , output reported half-life. > 30 min

# return recorded half-life for input CC1=C(C(=O)Nc2cc(C(=O)O)ccn2)C(c2ccc(C(F)(F)F)cc2Cl)N=C(Nc2nc3ccc(F)cc3o2)N1 (centres undefined) > 30 min

# return recorded half-life for input CC1=C(C(=O)Nc2cc(C(=O)O)ccn2)C(c2ccc(C)cc2Cl)N=C(Nc2nc3ncccc3o2)N1 (centres undefined) > 30 min

Supply half-life value. Item: CC1=C(C(=O)Nc2cc(C(=O)O)ccc2F)C(c2ccccc2Cl)N=C(Nc2nc3ccc(F)cc3o2)N1 (centres undefined) > 30 min

// fetch half-life given entry CC1=C(C(=O)Nc2nnc(-c3cccnc3)s2)C(c2ccccc2Cl)N=C(Nc2nc3cc(Cl)ccc3o2)N1 (centres undefined) > 30 min

Give the value of half-life reported for the following: COC(=O)c1ccnc(NC(=O)C2=C(C)NC(Nc3nc4cccc(N)c4o3)=NC2c2ccc(C)cc2Cl)c1 (centres undefined) 25.3 min

Give the reported value of half-life for this record: CC1=C(C(=O)Nc2cc(C(=O)O)ccn2)C(c2cccc(S(N)(=O)=O)c2)N=C(Nc2nc3ccc(F)cc3o2)N1 (centres undefined) > 30 min

Read off the recorded half-life for CC1=C(C(=O)Nc2ccccc2)C(c2ccccc2Cl)N=C(Nc2nc3ccccc3o2)N1 (centres undefined) 24 min

Report half-life, nothing else, for this molecule: CC1=C(C(=O)Nc2cccc(-c3cn[nH]c3)c2)C(c2ccccc2Cl)N=C(Nc2nc3ccccc3o2)N1 (centres undefined) > 30 min

Give a short answer stating reported half-life for CC1=C(C(=O)Nc2cc(C(=O)O)ccn2)C(c2ccccc2Cl)N=C(Nc2nc3cc(F)ccc3o2)N1 (centres undefined) . < 10 min

Indicate its recorded half-life; the molecule in question is CC1=C(C(=O)NCc2ccccc2Cl)C(c2ccccc2Cl)N=C(Nc2nc3ccccc3o2)N1 (centres undefined) 4.22 min

Provide only the value of recorded half-life for CC1=C(C(=O)Nc2nncs2)C(c2ccncc2Br)N=C(Nc2nc3ccccc3o2)N1 (centres undefined) > 30 min

Return the recorded half-life value; entry: CC1=C(C(=O)NCc2cccc(CO)c2)C(c2ccccc2Cl)N=C(Nc2nc3ccccc3o2)N1 (centres undefined) 6.57 min

Name the recorded half-life of the item CC1=C(C(=O)Nc2cc(C(=O)O)ccc2F)C(c2ccccc2Cl)N=C(Nc2nc3ccccc3o2)N1 (centres undefined) in your answer. > 30 min

Quickly give me recorded half-life for COC(=O)Cc1ccc(NC(=O)C2=C(C)NC(Nc3nc4ccccc4o3)=NC2c2ccccc2Cl)cc1 (centres undefined) 7.46 min

Let me know recorded half-life for CC1=C(C(=O)Nc2cc(C(=O)O)ccn2)C(c2ccccc2Cl)N=C(Nc2nc3ccccc3o2)N1 (racemic) , thanks. > 30 min

Please supply the value of reported half-life for the item CCn1cc(CNC(=O)C2=C(C)NC(Nc3nc4ccc(F)c(N)c4o3)=NC2c2ccc(Cl)cc2Cl)cn1 (centres undefined) 6.79 min

# return recorded half-life for entry CC1=C(C(=O)Nc2cccc(F)c2)C(c2ccccc2Cl)N=C(Nc2nc3ccccc3o2)N1 (centres undefined) > 30 min

Item CC1=C(C(=O)NCc2cnn(C)c2)C(c2ccc(Cl)cc2Cl)N=C(Nc2nc3ccc(F)c(N)c3o2)N1 (centres undefined) : provide half-life > 30 min

Identify measured half-life corresponding to O=C(O)CNC(=O)C1CC(=O)C2=C(C1)NC(Nc1nc3ccccc3o1)=NC2c1ccccc1Cl (centres undefined) > 30 min

Given the molecule CC1=C(C(=O)Nc2cc(C(=O)O)ccn2)C(c2ccccc2Cl)N=C(Nc2nc3c(Cl)cccc3o2)N1 (centres undefined) , write its reported half-life. > 30 min

Determine its reported half-life: CC1=C(C(=O)NCc2cncs2)C(c2ccccc2Cl)N=C(Nc2nc3ccccc3o2)N1 (centres undefined) 6.43 min

Give the reported half-life for this molecule. CC1=C(C(=O)NCc2cccc(C(=O)O)c2)C(c2ccccc2Cl)N=C(Nc2nc3ccccc3o2)N1 (centres undefined) > 30 min

Please report the measured half-life for CC(C)C1=C(C(=O)Nc2nncs2)C(c2ccccc2Cl)N=C(Nc2nc3ccccc3o2)N1 (centres undefined) > 30 min

Fill in reported half-life for this entry: CC1=C(C(=O)Nc2cc(C(=O)O)ccn2)C(c2ccc(C)cc2Cl)N=C(Nc2nc3ccc(F)cc3o2)N1 (racemic) > 30 min

Identify measured half-life associated with CC1=C(C(=O)NCc2cnn(C)c2)C(c2ccc(C)cc2Cl)N=C(Nc2nc3ccc(F)c(C(=O)O)c3o2)N1 (centres undefined) > 30 min

Give a short answer stating reported half-life for O/N=C1\CCCC2=C1C(c1ccccc1Cl)N=C(Nc1nc3ccccc3o1)N2 (centres undefined) . 5.48 min

Look up and report measured half-life for this entry: CCn1ncc(CNC(=O)C2=C(C)NC(Nc3nc4ccc(F)c(N)c4o3)=NC2c2ccc(C)cc2Cl)c1F (centres undefined) 7.04 min

Consider the molecule COC(=O)c1cccc(NC(=O)C2=C(C)NC(Nc3nc4ccccc4o3)=NC2c2ccccc2Cl)n1 (centres undefined) . State its measured half-life. > 30 min

Name the recorded half-life of the item CC1=C(C(=O)Nc2ncc(C(=O)O)s2)C(c2ccccc2Cl)N=C(Nc2nc3ccccc3o2)N1 (centres undefined) in your answer. > 30 min

Using known records, supply half-life for O=C1CC(C(=O)N2CCNCC2)CC2=C1C(c1ccccc1Cl)N=C(Nc1nc3ccccc3o1)N2 (centres undefined) 30 min

Give reported half-life value for O=C1CC(C(=O)NCCO)CC2=C1C(c1ccccc1Cl)N=C(Nc1nc3ccccc3o1)N2 (centres undefined) > 30 min

Identify half-life associated with the molecule CC1=C(C(=O)Nc2nncs2)C(c2c(Br)cnn2C)N=C(Nc2nc3ccccc3o2)N1 (centres undefined) > 30 min

Output measured half-life for this item: CC1=C(C(=O)Nc2cc(C(=O)O)ccn2)C(c2ccccc2Cl)N=C(Nc2nc3ccc(C)cc3o2)N1 (centres undefined) > 30 min
